settings: buffer; pH 7.4; 200.0 µM
readout_kind: solubility kinetic

Here is how some molecules turned out for solubility kinetic.
Q. What measured solubility kinetic goes with `Cc1cc(C)nc(N/N=C/c2sccc2C)n1` ?
A. > 0.0369 mg/mL

Q. Which solubility kinetic reading was recorded for the molecule `C#CCn1c(=O)cc(C)c2ccccc21` ?
A. > 0.0296 mg/mL

Q. Dear colleague, I am looking for the recorded solubility kinetic of the following molecule: CC(NC(=O)COC(=O)c1nc(Cl)ccc1Cl)c1ccccc1 (stereo not given)
A. > 0.053 mg/mL

Q. What value of solubility kinetic has been reported for the following molecule? `Nc1nnc(SCC(=O)N2CCCCC2)s1`
A. > 0.0388 mg/mL

Below: the item to evaluate.
Q. Report solubility kinetic for `Cc1cccc(C)c1OCC(=O)Nc1c(C)nn(C)c1C` please.
A. > 0.0431 mg/mL

* * *

# solubility kinetic values compiled below
conditions: buffer; pH 7.4; 200.0 µM

Q. Need solubility kinetic of `CCOc1ccc(NC(=O)CSc2ccccc2N)cc1` , thanks.
A. > 0.0454 mg/mL

Q. // returns reported solubility kinetic for input O=C(NC1CCCC1)C1CCCN(C(=O)Nc2ccccc2)C1 (stereo not given)
A. 0.0439 mg/mL

Q. Find the recorded solubility kinetic belonging to COc1cccc(CNC(C)C(=O)Nc2ccc(S(=O)(=O)N3CCCC3)cc2)c1 (stereo not given) and report it.
A. > 0.0626 mg/mL

***
Q. Query (molecule): `COc1ccc(CNC(=O)N[C@@H](CC(C)C)C(=O)O)cc1OC` ; field requested: solubility kinetic
A. > 0.0487 mg/mL

Q. solubility kinetic for `O=C(Nc1nc2ccccc2[nH]1)c1cc2ccccc2o1` ?
A. 0.0021 mg/mL

Q. Query: solubility kinetic; subject: `CCOc1ccc(NC(=S)Nc2cccnc2)cc1`
A. 0.0333 mg/mL

Q. Record request: solubility kinetic value, item COc1ccc2nc(SCC(=O)NCC3CCCO3)c(C#N)cc2c1 (stereo not given)
A. 0.0052 mg/mL

Q. Which measured solubility kinetic value corresponds to `O=C(COC(=O)c1ccccc1Oc1ccccc1)NC1CC1` ?
A. > 0.0467 mg/mL

Q. Look up solubility kinetic for this molecule: `Cc1ccc(COC(=O)NCc2cccnc2)cc1`
A. 0.0357 mg/mL

Q. Could you share which solubility kinetic value was measured for CCc1ccc(CN2CCC(CO)(CC3CCCCO3)CC2)o1 (stereo not given) ?
A. 0.0381 mg/mL

Q. Please report the recorded solubility kinetic for `O=C(Cn1c(=O)cnc2ccccc21)Nc1cc(Cl)ccc1N1CCOCC1` .
A. 0.0516 mg/mL

Q. Looking for the measured solubility kinetic of `COc1ccc(/C(N)=N/OC(=O)CCc2ccccc2)cc1` , can you help?
A. 0.0099 mg/mL

Q. Please look up its solubility kinetic: CC1CCCCN1C(C(=O)O)c1ccccc1.Cl (stereo not given)
A. > 0.0405 mg/mL

Q. Need solubility kinetic of `CCOc1cc(CNc2ccc(N3CCCC3)cc2)cc(Cl)c1OC` , thanks.
A. < 0.0004 mg/mL

Q. Query (molecule): `CCN(CC)C(=O)CSc1ncccc1-c1nc2ccccc2[nH]1` ; field requested: solubility kinetic
A. 0.0176 mg/mL

Q. Looking for the measured solubility kinetic of `CN1CCN(c2nc3ccccn3c(=O)c2C=C(C#N)C#N)CC1` , can you help?
A. 0.048 mg/mL

Q. // query solubility kinetic value for entry COc1ccc(N2C(=O)C3CCCN3C2=S)cc1 (stereo not given)
A. > 0.0393 mg/mL

Q. Consider the molecule `Cc1cc2nc(-c3ccc[nH]c3=O)[nH]c2cc1C` and give its measured solubility kinetic.
A. 0.0033 mg/mL

Q. For `COc1ccc(C(=O)N2CCC2)cc1S(=O)(=O)NCc1ccc(Cl)cc1` , what is its reported solubility kinetic?
A. 0.0574 mg/mL

Q. Name the reported solubility kinetic value associated with the molecule `Cc1ccc(S(=O)(=O)N2CCOCC2)cc1NC(=O)COC(=O)/C=C/c1ccco1`
A. 0.0114 mg/mL
